tested.system: ATM enzyme (Homo sapiens)
Construct: purchased Eurofins 14-933
Sequence (Q13315 whole entry): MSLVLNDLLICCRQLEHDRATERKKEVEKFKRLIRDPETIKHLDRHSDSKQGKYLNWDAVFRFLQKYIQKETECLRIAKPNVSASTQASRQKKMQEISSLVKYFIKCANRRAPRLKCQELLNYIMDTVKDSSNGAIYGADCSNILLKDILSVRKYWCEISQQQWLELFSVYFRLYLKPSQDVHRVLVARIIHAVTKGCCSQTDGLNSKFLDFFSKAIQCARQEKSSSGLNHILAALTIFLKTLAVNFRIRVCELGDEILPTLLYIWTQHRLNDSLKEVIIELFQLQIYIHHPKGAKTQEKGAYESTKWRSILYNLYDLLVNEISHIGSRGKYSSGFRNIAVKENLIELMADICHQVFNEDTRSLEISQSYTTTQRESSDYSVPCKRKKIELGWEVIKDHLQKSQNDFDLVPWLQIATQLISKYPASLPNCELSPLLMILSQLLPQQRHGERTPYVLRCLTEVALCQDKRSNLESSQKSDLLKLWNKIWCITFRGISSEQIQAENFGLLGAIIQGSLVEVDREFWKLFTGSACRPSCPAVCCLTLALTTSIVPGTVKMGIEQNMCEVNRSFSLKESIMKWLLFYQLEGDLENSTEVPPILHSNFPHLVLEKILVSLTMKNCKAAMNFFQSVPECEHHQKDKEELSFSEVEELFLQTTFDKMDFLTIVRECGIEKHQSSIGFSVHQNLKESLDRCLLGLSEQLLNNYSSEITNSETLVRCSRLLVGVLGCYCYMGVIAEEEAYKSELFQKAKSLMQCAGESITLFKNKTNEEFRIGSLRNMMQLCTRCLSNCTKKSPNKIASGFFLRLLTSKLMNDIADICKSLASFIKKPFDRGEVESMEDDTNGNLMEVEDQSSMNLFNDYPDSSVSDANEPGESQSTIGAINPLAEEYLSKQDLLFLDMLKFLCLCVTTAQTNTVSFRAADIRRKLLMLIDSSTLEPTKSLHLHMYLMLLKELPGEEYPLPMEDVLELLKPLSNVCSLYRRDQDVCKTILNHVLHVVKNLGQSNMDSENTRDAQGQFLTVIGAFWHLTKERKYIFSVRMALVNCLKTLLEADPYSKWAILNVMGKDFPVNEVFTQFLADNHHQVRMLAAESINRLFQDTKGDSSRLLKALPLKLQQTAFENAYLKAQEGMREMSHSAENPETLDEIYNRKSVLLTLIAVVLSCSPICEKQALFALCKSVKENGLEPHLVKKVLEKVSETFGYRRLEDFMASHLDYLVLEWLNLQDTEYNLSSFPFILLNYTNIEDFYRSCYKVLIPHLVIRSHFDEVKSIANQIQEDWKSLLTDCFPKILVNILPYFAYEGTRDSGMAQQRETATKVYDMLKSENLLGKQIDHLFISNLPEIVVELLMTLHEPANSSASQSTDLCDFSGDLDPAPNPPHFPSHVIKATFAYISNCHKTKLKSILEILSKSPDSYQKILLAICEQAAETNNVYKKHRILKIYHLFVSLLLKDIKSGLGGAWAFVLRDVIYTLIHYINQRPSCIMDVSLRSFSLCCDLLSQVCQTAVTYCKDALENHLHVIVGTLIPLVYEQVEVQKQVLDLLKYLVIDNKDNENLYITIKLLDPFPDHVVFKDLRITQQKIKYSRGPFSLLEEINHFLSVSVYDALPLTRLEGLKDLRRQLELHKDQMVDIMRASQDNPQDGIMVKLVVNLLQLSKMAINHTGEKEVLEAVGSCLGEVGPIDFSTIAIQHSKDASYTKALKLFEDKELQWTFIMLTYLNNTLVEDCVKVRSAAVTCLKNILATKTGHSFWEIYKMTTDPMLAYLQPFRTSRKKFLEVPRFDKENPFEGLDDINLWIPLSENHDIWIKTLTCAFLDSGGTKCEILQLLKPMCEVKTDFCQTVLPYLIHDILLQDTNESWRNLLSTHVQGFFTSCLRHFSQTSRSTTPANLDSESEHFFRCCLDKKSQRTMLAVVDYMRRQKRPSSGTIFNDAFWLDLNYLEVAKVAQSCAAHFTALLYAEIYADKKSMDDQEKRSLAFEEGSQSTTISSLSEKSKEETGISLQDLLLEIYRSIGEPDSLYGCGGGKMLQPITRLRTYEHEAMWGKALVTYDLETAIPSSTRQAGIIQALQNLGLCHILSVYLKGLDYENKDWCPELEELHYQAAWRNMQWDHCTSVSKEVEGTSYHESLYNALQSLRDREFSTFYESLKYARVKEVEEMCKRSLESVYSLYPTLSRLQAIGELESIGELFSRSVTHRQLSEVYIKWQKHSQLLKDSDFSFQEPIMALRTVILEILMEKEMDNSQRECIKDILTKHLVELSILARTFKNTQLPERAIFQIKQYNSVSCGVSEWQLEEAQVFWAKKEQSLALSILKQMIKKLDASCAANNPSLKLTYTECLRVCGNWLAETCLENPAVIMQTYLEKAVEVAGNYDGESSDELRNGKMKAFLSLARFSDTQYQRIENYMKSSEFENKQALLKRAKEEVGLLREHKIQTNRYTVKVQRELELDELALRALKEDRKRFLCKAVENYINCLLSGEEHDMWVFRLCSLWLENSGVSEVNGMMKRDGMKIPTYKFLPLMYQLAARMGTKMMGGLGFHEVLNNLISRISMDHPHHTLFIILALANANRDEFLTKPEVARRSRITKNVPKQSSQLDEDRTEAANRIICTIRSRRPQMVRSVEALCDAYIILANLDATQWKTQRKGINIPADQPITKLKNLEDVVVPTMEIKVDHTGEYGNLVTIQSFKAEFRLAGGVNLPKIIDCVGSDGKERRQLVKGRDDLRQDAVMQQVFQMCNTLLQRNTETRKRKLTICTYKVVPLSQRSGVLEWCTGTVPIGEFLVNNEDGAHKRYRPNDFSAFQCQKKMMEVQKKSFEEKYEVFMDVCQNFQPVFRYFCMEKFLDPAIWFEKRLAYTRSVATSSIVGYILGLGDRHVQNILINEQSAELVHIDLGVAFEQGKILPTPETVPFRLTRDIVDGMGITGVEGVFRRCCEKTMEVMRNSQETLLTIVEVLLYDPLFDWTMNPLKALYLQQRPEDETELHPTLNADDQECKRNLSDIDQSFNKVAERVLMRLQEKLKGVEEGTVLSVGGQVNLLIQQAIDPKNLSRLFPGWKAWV
assay.protocol: ATM kinase assay (HTRF)
Type: biochemical
measurement.setup: 0.5 h; C 10 μm; read-out: Inh (%) ATM kinase inhibition rate
Property: inhibition at 10 µM; scope: individual compounds
// note: answer is a bare numeric in %

// worked examples, inhibition at 10 µM included
1. Cn1c(=O)c(C2CCOCC2)c2c3cc(-c4ccc(OCCCN5CCCCC5)nc4)ccc3ncn21 [Example 3]: 98
2. CCNC1CCN(c2ccc(-c3ccc4ncn5c(c(C6CCOCC6)c(=O)n5C)c4c3)cc2C(F)(F)F)CC1 [Example 11]: 100
3. CN(C)CCCOc1ccc(-c2ccc3ncn4c(c(C5CCOCC5)c(=O)n4C)c3c2)cc1C(F)(F)F [Example 5]: 100
4. CN(C)CCCOc1ccc(-c2ccc3ncn4[nH]c(=O)c(C5CCOCC5)c4c3c2)cn1 [Example 1]: 23

inhibition at 10 µM for CNC1CCN(c2ccc(-c3ccc4ncn5c(c(C6CCOCC6)c(=O)n5C)c4c3)cc2C(F)(F)F)CC1 [Example 10] ?
100

---

Tested on: human colon cancer cell SW620
assay.protocol: MTT assay, growth of SW620 cells, compounds combined with CPT-11
Type: cell-based
measurement.setup: Homo sapiens, SW-620, 120 h, read-out: IC50, growth of SW620 combined with CPT-11
quantity.name: IC50 (µM)
Note: unit µM is implicit; provide only the numeric part.

Reference set (3 entries):
1) CC(C)c1c(=O)n(C)n2cnc3ccc(-c4ccc(OCCCN5CCCCC5)nc4)cc3c12 [Example 20]: 0.00348
2) CC(C)c1c(=O)n(C)n2cnc3ccc(-c4ccc(OCCCN(C)C)c(C(F)(F)F)c4)cc3c12 [Example 25]: 0.0134
3) CC(C)c1c(=O)n(C)n2cnc3ccc(-c4ccc(N5CCC(N(C)C)CC5)c(Cl)c4)cc3c12 [Example 22]: 0.0261

Kindly review the next compound as well.
Please report the recorded IC50 for CC(C)c1c(=O)n(C)n2cnc3ccc(-c4ccc(N5CCC(N(C)C)CC5)c(F)c4)cc3c12 [Example 21] .
0.0105

---

Test system: human colon cancer cell SW620
assay.protocol: MTT assay, growth of SW620 cells, compounds combined with CPT-11
Type: cell-based
measurement.setup: Homo sapiens, SW-620, 120 h, read-out: IC50, growth of SW620 combined with CPT-11
Method: The cells were seeded into 96-well cell culture plate with appropriate cell density and incubated overnight in a 37° C. 5% CO2 incubator. […] 5 μL of each concentration was added to 120 μL of medium (25 times diluted) and mixed by shaking. […] After removing the original solution, 100 μL of fresh serum-free DMEM medium containing MTT (0.5 mg/mL) was added to each well, the culture was continued. […] GraphPad Prism 6.0 was used to analyze the data. […]
quantity.name: IC50 (nM)
Numbers only here, please. The scale is nM.

1) CC(C)c1c(=O)n(C)n2cnc3ccc(-c4ccc(OCCCN(C)C)c(F)c4)cc3c12: 47.6
2) CC(C)c1c(=O)n(C)n2cnc3ccc(-c4ccc(OCCCN(C)C)nc4)cc3c12: 5.67

Now for another entry.
Fill blank: measured IC50 of the molecule "CC(C)c1c(=O)n(C)n2cnc3ccc(-c4ccc(N5CCC(N(C)C)CC5)c(C(F)(F)F)c4)cc3c12" is ____.
8.49

Data credit: patent US12673951B2
